- SYSTEM: T1, human CD33 extracellular domain (human, UniProt P20138 18-259)
- T1 construct: soluble monomeric ECD; also called human CD33 ECD; hCD33
- METHOD DESCRIPTION: SPR, Fab captured, 37C;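 also: surface plasmon resonance with Fabs captured on anti-Fab surface, soluble monomeric CD33 as analyte at several concentrations, double-referenced 1:1 model fit, KD as koff/kon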
ASSAY ENDPOINT: Kd (pM)
I only need the number, in pM, no unit after it.

A selection of reference data follows.
Supply recorded Kd for ADI-11815 Fab (Fab, V domains shown, Fab fragment; also called Ab7) VH: QVQLVQSGAEVKKPGASVKVSCKASGYTFGTYYMHWVRQAPGQGLEWMGIINPSRGSTVYAQKFQGRVTMTRDTSTSTVYMELSSLRSEDTAVYYCARGAGYDDEDMDVWGKGTTVTVSS VL: DIQMTQSPSSVSASVGDRVTITCRASQGIDSWLAWYQQKPGKAPKLLIYAASSLQSGVPSRFSGSGSGTDFTLTISSLQPEDFATYYCQQAHSYPLTFGGGTKVEIK here. 230

Supply recorded Kd for ADI-11819 Fab (Fab, V domains shown, Fab fragment; also called Ab8) VH: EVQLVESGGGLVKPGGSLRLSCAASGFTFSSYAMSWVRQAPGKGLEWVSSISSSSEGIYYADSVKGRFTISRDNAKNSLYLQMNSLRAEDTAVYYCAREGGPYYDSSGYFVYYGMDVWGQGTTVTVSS VL: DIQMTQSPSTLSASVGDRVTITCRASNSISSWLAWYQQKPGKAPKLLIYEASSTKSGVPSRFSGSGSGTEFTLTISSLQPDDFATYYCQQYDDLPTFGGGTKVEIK here. 20

---
Supply recorded Kd for ADI-11812 Fab (Fab, V domains shown, Fab fragment; also called Ab24) VH: QVQLVQSGAEVKKPGASVKVSCKASGYTFEIYYMHWVRQAPGQGLEWMGIINPSSGSTVYAQKFQGRVTMTRDTSTSTVYMELSSLRSEDTAVYYCARGAGYDDEDMDVWGKGTTVTVSS VL: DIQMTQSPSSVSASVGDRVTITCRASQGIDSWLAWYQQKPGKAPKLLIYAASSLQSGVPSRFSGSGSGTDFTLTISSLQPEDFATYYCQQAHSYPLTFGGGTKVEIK here. 1230
